Exercise: state measured increase in TNF-α levels for each of the compounds provided.
Tested on: PC-3 xenografts
Type: in vivo, athymic nude mice
Conditions: vector + IP agent days 1 and 2, cisplatin 9, cyclophosphamide 160, doxorubicin 15, 5-FU 100, gemcitabine 500 mg/kg
Method: Saline or chemotherapeutic agents administered IP on days 1 and 2, including 9 mg/kg cisplatin, 160 mg/kg cyclophosphamide, 15 mg/kg doxorubicin, 100 mg/kg 5-FU and 500 mg/kg gemcitabine. Animals were euthanized, and xenografts were harvested 24 hrs after the second IP injection. […] TNF-α levels in the supernatants were measured by ELISA as described above.
Structures can show the parent of a compound that is named as a salt.
Output spec: scalar in fold, unitless text.

(Q) Need increase in TNF-α levels, item O=c1[nH]cc(F)c(=O)[nH]1 [5-FU, 5-fluorouracil]
(A) 4.4

(Q) Entry O=P1(N(CCCl)CCCl)NCCCO1 (stereo not shown) [cyclophosphamide, Cyclophosphamide] : reported increase in TNF-α levels = ?
(A) 4.4

(Q) Can you share its increase in TNF-α levels? I mean this compound: COc1cccc2c1C(=O)c1c(O)c3c(c(O)c1C2=O)C[C@@](O)(C(=O)CO)C[C@@H]3O[C@H]1C[C@H](N)[C@H](O)[C@H](C)O1 [doxorubicin, doxorubicin hydrochloride]
(A) 4.2

(Q) Quick check: increase in TNF-α levels of N.N.[Cl][Pt][Cl] [cisplatin] ?
(A) 3.1

Data origin, for the record: patent US8034791B2
